- tgt: UniProtKB P21462
- Sequence (P21462 whole entry): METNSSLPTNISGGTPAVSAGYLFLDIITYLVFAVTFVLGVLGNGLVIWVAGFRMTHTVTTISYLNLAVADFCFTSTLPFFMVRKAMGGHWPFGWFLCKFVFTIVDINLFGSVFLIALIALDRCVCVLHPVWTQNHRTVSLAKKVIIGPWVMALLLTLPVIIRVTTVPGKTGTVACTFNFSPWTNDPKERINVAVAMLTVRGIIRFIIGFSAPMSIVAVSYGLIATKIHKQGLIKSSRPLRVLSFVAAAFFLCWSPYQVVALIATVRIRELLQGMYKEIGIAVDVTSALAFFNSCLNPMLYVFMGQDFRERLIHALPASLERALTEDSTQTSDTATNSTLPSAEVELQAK
- assay.procedure: FPR1 cyclic adenosine monophosphate (cAMP) assay
- Assay type: cell-based
- condition.info: CHO cells overexpressing human FPR1; forskolin 10 µM; inhibition of cAMP production; read-out: hFPR1 cAMP EC50
measured.metric: EC50

1) COc1cc(F)c([C@@H]2CN(c3nc(C(F)(F)F)ccc3C)C(=O)[C@H]2NC(=O)c2ccc(OC(F)F)cc2)c(F)c1 = 520 nM
2) COc1cc(F)c([C@@H]2CN(c3cccn(CC(OC)C(F)(F)F)c3=O)C(=O)[C@H]2NC(=O)c2ccc(OC(F)(F)F)cc2)c(F)c1 (stereo partly shown) [Example 156] = 1.3 nM
3) COc1ccc([C@@H]2CN(c3ccnn(CC(F)F)c3=O)C(=O)[C@H]2NC(=O)c2ccc(OC(F)F)cc2)c(F)c1 = 6.5 nM
4) COc1cc(F)c([C@@H]2CN(c3c(C)ccn(CCS(C)(=O)=O)c3=O)C(=O)[C@H]2NC(=O)c2ccc(OC(F)F)cc2)c(F)c1 = 8 nM
5) CCn1cncc(N2C[C@@H](c3c(F)cc(OC)cc3F)[C@H](NC(=O)c3ccc(OC(F)F)cc3)C2=O)c1=O = 1100 nM
6) COc1cc(F)c([C@@H]2CN(c3nccc(NCC(C)(C)O)c3C(F)(F)F)C(=O)[C@H]2NC(=O)c2ccc(Cl)cc2)c(F)c1 = 2300 nM
7) COCC(CO)n1cccc(N2C(=O)[C@@H](NC(=O)c3ccc(OC(F)(F)F)cc3)[C@H](c3c(F)cc(OC)cc3F)[C@@H]2C)c1=O (stereo partly shown) [Example 175] = 9.3 nM
8) COc1cc(F)c([C@@H]2CN(c3cccnc3P(C)(C)=O)C(=O)[C@H]2NC(=O)c2ccc(OC(F)F)cc2)c(F)c1 = 750 nM
9) CCn1cc(C)c(C)c(N2C[C@@H](c3c(F)cc(OC)cc3F)C(NC(=O)c3ccc(OC(F)(F)F)cc3)C2=O)c1=O (stereo partly shown) [Example 639] = 57 nM
10) COc1cc(F)c([C@@H]2CN(c3cccnc3OCCO)C(=O)[C@H]2NC(=O)c2ccc(OC(F)(F)F)cc2)c(F)c1 = 39 nM
11) COc1cc(F)c([C@@H]2CN(c3cccn(CC(C)O)c3=O)C(=O)[C@H]2NC(=O)c2ccc(OC(F)(F)F)cc2)c(F)c1 (stereo partly shown) [Example 89] = 45 nM
12) COc1cc(F)c([C@@H]2CN(c3cc(C(F)(F)F)cn(C)c3=O)C(=O)[C@H]2NC(=O)c2ccc(Cl)cc2)c(F)c1 = 1500 nM
13) COc1cc(F)c([C@@H]2CN(CC3CC3)C(=O)[C@H]2NC(=O)c2ccc(OC(F)F)cc2)c(F)c1 = 1700 nM
14) COCCn1cccc(N2C[C@@H](c3ccc(OC)cc3)[C@H](NC(=O)c3ccc(OC(F)(F)F)cc3)C2=O)c1=O = 2.6 nM
15) COc1cc(F)c([C@@H]2CN(c3ccc(F)c(N4C[C@@H]5C[C@H]4CN5C)n3)C(=O)[C@H]2NC(=O)c2ccc(OC(F)(F)F)cc2)c(F)c1 = 1600 nM
16) COc1cc(F)c([C@@H]2CN(c3cc(C)cc(N4C[C@@H]5C[C@H]4CN5C)n3)C(=O)[C@H]2NC(=O)c2ccc(OC(F)(F)F)cc2)c(F)c1 = 580 nM
17) COc1cc(F)c([C@@H]2CN(c3c(C)ccn(CC(C)O)c3=O)C(=O)[C@H]2NC(=O)c2ccc(OC(F)F)cc2)c(F)c1 (stereo partly shown) [Example 176] = 6.5 nM
18) COCC(CN)n1cccc(N2C[C@@H](c3c(F)cc(OC)cc3F)[C@H](NC(=O)c3ccc(OC(F)F)cc3)C2=O)c1=O (stereo partly shown) [Example 41] = 110 nM
19) COc1cc(F)c([C@@H]2CN(c3ccc(CO)[nH]c3=O)C(=O)[C@H]2NC(=O)c2ccc(OC(F)(F)F)cc2)c(F)c1 = 130 nM
20) COc1ccc([C@@H]2CN(c3cccn(CC(F)F)c3=O)C(=O)[C@H]2NC(=O)c2ccc(OC(F)(F)F)cc2)cc1 = 13 nM
21) COc1ccc([C@@H]2CN(c3cccn(CC(O)C(F)(F)F)c3=O)C(=O)[C@H]2NC(=O)c2ccc(OC(F)F)cc2)cc1 (stereo partly shown) [Example 644] = 64 nM
22) COc1ccc([C@@H]2CN(c3cccn(CC(F)F)c3=O)C(=O)[C@H]2NC(=O)c2ccc(OC(F)(F)F)cc2)c(F)c1 = 4.3 nM
23) COCC(CO)n1cccc(N2C[C@@H](c3ccc(Cl)cc3)[C@H](NC(=O)c3ccc(OC(F)F)cc3)C2=O)c1=O (stereo partly shown) [Example 118] = 4.1 nM
24) COc1ccc([C@@H]2CN(c3cccn(CC(C)O)c3=O)C(=O)[C@H]2NC(=O)c2ccc(OC(F)(F)F)cc2)c(F)c1 (stereo partly shown) = 4 nM
25) COc1cc(F)c([C@@H]2CN(c3cccc(N4C[C@@H](C)N(C)[C@@H](C)C4)n3)C(=O)[C@H]2NC(=O)c2ccc(OC(F)F)cc2)c(F)c1 = 940 nM
